These data points were gathered from ChEMBL document CHEMBL1142248.

# EXPERIMENTAL_TARGET: UniProt:P35408
# ASSAY_PROTOCOL: Binding affinity to human EP4 receptor expressed in HEK293 cells
# Format: cell-based
Label TRUE when Ki < 0.9 nM; otherwise FALSE.

Please review the entries below; each comes with its answer.
// query Hi there! Is Ki for `CCOc1c2c(c(OCC)c3ccccc13)C(=O)N(c1ccc(CS(=O)(=O)NC(=O)Cc3c(C)cc(C)cc3C)cc1)C2` below 0.9 nM, do you know?
// result TRUE

// query Regarding `CCOc1c2c(c(OCC)c3ncccc13)CN(c1ccc(CS(=O)(=O)NC(=O)Cc3cccnc3)cc1C)C2=O` , kindly confirm whether its Ki is beneath 0.9 nM.
// result FALSE

// query Lab note: confirm whether the reported Ki for this molecule is below 0.9 nM, equality not counting. molecule: `CCOc1c2c(c(OCC)c3ccccc13)C(=O)N(c1ccc(CS(=O)(=O)NC(=O)COc3ccccc3)cc1)C2`
// result TRUE

// query Find out if reported Ki for `CCOc1c2c(c(OCC)c3ccccc13)C(=O)N(c1ccc(CS(=O)(=O)NC(=O)Cc3cccc4ccccc34)cc1)C2` is less than 0.9 nM
// result TRUE

// query Find out if reported Ki for `COc1ccccc1CC(=O)NS(=O)(=O)Cc1ccc(N2Cc3c(c(OCC(F)(F)F)c4cccnc4c3OCC(F)(F)F)C2=O)c(C)c1` is less than 0.9 nM
// result TRUE

---
// query Hello, I'm reviewing records and need to know if Ki of `CCOc1c2c(c(OCC)c3ncccc13)CN(c1ccc(CS(=O)(=O)NC(=O)C3(c4ccccc4OC)CC3)cc1C)C2=O` is below 0.9 nM. Could you check?
// result TRUE

---

# ASSAY_PROTOCOL: Half life in guinea pig at 5 mg/kg, iv
# Format: ADME, organism-based, Cavia porcellus
# Set-up: dose 5 mg/kg, route intravenous
# CONDITION_SUMMARY: in vivo
ASSAY_METRIC: half-life (h)
// units = h; emit number, no label

// query Entry `CCOc1c2c(c(OCC)c3ncccc13)CN(c1ccc(CS(=O)(=O)[N-]C(=O)Cc3ccccc3OC)cc1C)C2=O.[Na+]` : reported half-life = ?
// result 8.6

---

# ASSAY_PROTOCOL: Bioavailability in guinea pig at 20 mg/kg, po or 5 mg/kg, iv
# Type: ADME, organism-based, Cavia porcellus
# CONDITION_SUMMARY: in vivo
ASSAY_METRIC: bioavailability (%)
Please state the figure in %; there is no need to write the unit.

// query Looking for the measured bioavailability of `CCOc1c2c(c(OCC)c3ncccc13)CN(c1ccc(CS(=O)(=O)[N-]C(=O)Cc3ccccc3OC)cc1C)C2=O.[Na+]` , can you help?
// result 18

---

# ASSAY_PROTOCOL: Bioavailability in dog at 10 mg/kg, po or 2 mg/kg, iv
# Assay type: ADME, organism-based, Canis lupus familiaris
# CONDITION_SUMMARY: in vivo
ASSAY_METRIC: bioavailability (%)
Give the quantity in %, number only.

// query Param item = `CCOc1c2c(c(OCC)c3ncccc13)CN(c1ccc(CS(=O)(=O)[N-]C(=O)Cc3ccccc3OC)cc1C)C2=O.[Na+]` ; retrieve measured bioavailability.
// result 49

---

# EXPERIMENTAL_TARGET: Prostaglandin E2 receptor EP4 subtype (Homo sapiens, UniProt P35408)
# Sequence (P35408 whole entry): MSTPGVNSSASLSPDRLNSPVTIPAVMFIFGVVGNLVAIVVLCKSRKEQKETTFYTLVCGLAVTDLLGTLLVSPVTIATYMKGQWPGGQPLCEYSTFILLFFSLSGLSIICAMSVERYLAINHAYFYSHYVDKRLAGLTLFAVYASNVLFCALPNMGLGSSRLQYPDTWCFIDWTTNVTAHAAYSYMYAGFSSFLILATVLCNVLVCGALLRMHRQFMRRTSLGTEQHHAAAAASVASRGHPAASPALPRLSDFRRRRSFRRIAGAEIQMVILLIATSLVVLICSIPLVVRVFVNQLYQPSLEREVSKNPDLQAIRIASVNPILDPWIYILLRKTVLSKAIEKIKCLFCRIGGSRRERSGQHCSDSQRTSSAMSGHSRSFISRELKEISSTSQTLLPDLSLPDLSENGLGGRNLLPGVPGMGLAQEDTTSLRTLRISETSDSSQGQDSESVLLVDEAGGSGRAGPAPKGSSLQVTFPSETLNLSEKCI
# ASSAY_PROTOCOL: Binding affinity to human EP4 receptor expressed in HEK293 cells in presence of 10% human serum
# Format: cell-based
List of pKi values.
Note on pKi: it is the negative log10 of concentration, concentration in mol/L.

// query So what's the measured pKi for this one? `CCOc1c2c(c(OCC)c3ncccc13)CN(c1ccc(CS(=O)(=O)NC(=O)Cc3ccccc3OC(F)(F)F)cc1C)C2=O`
// result 7.25

---

Documented Ki across a set of compounds
# EXPERIMENTAL_TARGET: Prostaglandin E2 receptor EP4 subtype (Homo sapiens)
# ASSAY_PROTOCOL: Binding affinity to human EP4 receptor expressed in HEK293 cells
# Assay type: cell-based
Return type: number; implicit unit nM.

Solved cases (3 shown):
// query Dear colleague, I am looking for the recorded Ki of the following compound: `CCOc1c2c(c(OCC)c3ncccc13)CN(c1ccc(CS(=O)(=O)NC(=O)Cc3ccccc3OC(F)(F)F)cc1C)C2=O`
// result 0.21

// query Given `COc1cccc(OC)c1C1(C(=O)NS(=O)(=O)Cc2ccc(N3Cc4c(c(OCC(F)(F)F)c5cccnc5c4OCC(F)(F)F)C3=O)c(C)c2)CC1` , state its recorded Ki.
// result 0.79

// query Any idea what Ki was measured for `CCOc1c2c(c(OCC)c3ncccc13)CN(c1ccc(CS(=O)(=O)NC(=O)Cc3ccccc3)cc1C)C2=O` ?
// result 0.76

More entries:
// query Would you kindly share the measured Ki for `CCOc1c2c(c(OCC)c3ncccc13)CN(c1ccc(CS(=O)(=O)NC(=O)Cc3ccccn3)cc1C)C2=O` ?
// result 2.4

// query Reported Ki, compound `COc1ccccc1C1(C(=O)NS(=O)(=O)Cc2ccc(N3Cc4c(c(OCC(F)(F)F)c5cccnc5c4OCC(F)(F)F)C3=O)c(C)c2)CC1` : ____
// result 0.95

// query Need Ki, item `CCOc1c2c(c(OCC)c3ncccc13)C(=O)N(c1ccc(CS(=O)(=O)NC(=O)Cc3ccccc3)cc1C)C2`
// result 3.3

// query Requested field: Ki. Item: `CCOc1c2c(c(OCC)c3ncccc13)CN(c1ccc(CS(=O)(=O)NC(=O)Cc3c(Cl)cccc3Cl)cc1C)C2=O`
// result 0.28

// query State the recorded Ki for this entry: `CCOc1c2c(c(OCC)c3ccccc13)C(=O)N(c1ccc(CS(=O)(=O)NC(=O)CCc3ccsc3)cc1)C2`
// result 4.2

// query What value of measured Ki is listed for `CCOc1c2c(c(OCC)c3ccccc13)C(=O)N(c1ccc(CS(=O)(=O)NC(=O)Cc3cc(OC)ccc3OC)cc1)C2` ?
// result 0.37

---

# EXPERIMENTAL_TARGET: Prostaglandin E2 receptor EP4 subtype (Homo sapiens, UniProt P35408)
# ASSAY_PROTOCOL: Binding affinity to human EP4 receptor expressed in HEK293 cells in presence of 10% human serum
# Format: cell-based
This listing pairs compounds with measured log10 Ki.
Values reflect log10 of reported Ki (µM).

Would you please look over these solved cases?
// query Any idea what log10 Ki was measured for `CCOc1c2c(c(OCC)c3ncccc13)CN(c1ccc(CS(=O)(=O)NC(=O)Cc3ccccn3)cc1C)C2=O` ?
// result -1.89

// query Request the reported log10 Ki associated with `COc1ccccc1CC(=O)NS(=O)(=O)Cc1ccc(N2Cc3c(c(OC(C)C)c4cccnc4c3OC(C)C)C2=O)c(C)c1`
// result -1.59

// query Which log10 Ki reading was recorded for the compound `CCOc1c2c(c(OCC)c3ncccc13)C(=O)N(c1ccc(CS(=O)(=O)NC(=O)Cc3ccccc3)cc1C)C2` ?
// result -0.18

// query Tell me the measured log10 Ki of `CCOc1c2c(c(OCC)c3ncccc13)CN(c1ccc(CS(=O)(=O)NC(=O)Cc3ccccc3)cc1C)C2=O` , please.
// result -1.51

// query Endpoint output: log10 Ki of `CCOc1c2c(c(OCC)c3ncccc13)CN(c1ccc(CS(=O)(=O)NC(=O)Cc3ccccc3Cl)cc1C)C2=O` . Value?
// result -1.43

// query Recorded log10 Ki for `CCOc1c2c(c(OCC)c3ccccc13)C(=O)N(c1ccc(CS(=O)(=O)NC(=O)Cc3ccccc3)cc1C)C2` , please?
// result -1.54

Further cases:
// query Endpoint output: log10 Ki of `CCOc1c2c(c(OCC)c3ncccc13)CN(c1ccc(CS(=O)(=O)NC(=O)Cc3ccccc3OC)cc1C)C2=O` . Value?
// result -2.44

// query Give the measured log10 Ki of `CCOc1c2c(c(OCC)c3ncccc13)CN(c1ccc(CS(=O)(=O)NC(=O)Cc3ccccc3C(F)(F)F)cc1C)C2=O` .
// result -0.46

// query Query: log10 Ki; subject: `CCOc1c2c(c(OCC)c3ncccc13)CN(c1ccc(CS(=O)(=O)NC(=O)Cc3cccnc3)cc1C)C2=O`
// result -1.32

// query Record request: log10 Ki value, item `CCOc1c2c(c(OCC)c3ncccc13)CN(c1ccc(CS(=O)(=O)NC(=O)C3(c4c(OC)cccc4OC)CC3)cc1C)C2=O`
// result -2.64

// query So what does the record say about log10 Ki for `CCOc1c2c(c(OCC)c3ccccc13)C(=O)N(c1ccc(CS(=O)(=O)NC(=O)Cc3cccc(OC)c3)cc1)C2` ?
// result 0.20

// query What value of measured log10 Ki is listed for `CCOc1c2c(c(OCC)c3ncccc13)CN(c1ccc(CS(=O)(=O)NC(=O)Cc3ccccc3OC(F)F)cc1C)C2=O` ?
// result -1.89

// query # get_value(readout='log10 Ki', item= `CCOc1c2c(c(OCC)c3ncccc13)CN(c1ccc(CS(=O)(=O)NC(=O)Cc3ccncc3)cc1C)C2=O` )
// result -0.80

// query # query: log10 Ki of entry `CCOc1c2c(c(OCC)c3ccccc13)C(=O)N(c1ccc(CS(=O)(=O)NC(=O)Cc3cc(OC)ccc3OC)cc1)C2`
// result -1.42
